assayed_system: rat 17β-HSD 1 (Rattus norvegicus)
Construct: Full length cDNAs of several 17β-HSDs type 1 originating from different species were cloned; made in house; host or cells: E.coli BL21 DE3 Codon Plus RP
Sequence (P51657 whole entry): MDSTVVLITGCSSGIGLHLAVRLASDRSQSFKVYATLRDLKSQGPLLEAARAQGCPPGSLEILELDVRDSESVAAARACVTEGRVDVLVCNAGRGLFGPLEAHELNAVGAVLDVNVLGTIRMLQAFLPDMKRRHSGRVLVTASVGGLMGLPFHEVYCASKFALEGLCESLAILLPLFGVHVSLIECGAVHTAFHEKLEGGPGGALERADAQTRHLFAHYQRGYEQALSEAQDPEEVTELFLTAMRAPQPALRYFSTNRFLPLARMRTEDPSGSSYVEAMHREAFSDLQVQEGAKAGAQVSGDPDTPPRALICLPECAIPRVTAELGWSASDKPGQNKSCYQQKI
assay_text: In vitro enzymatic activity, recombinant rat 17β-HSD 1
Format: biochemical
stated_conditions: 2 µM compound, 15 nM 3H-estrone, read-out: Observed % inhibition
Label scheme for inhibition at 2 µM: lower than 40% is rule not met, 40% and above is rule met.

Record excerpt, results attached:
[[record]]
compound = "Cc1cnc(NC(=O)CC[C@@H]2CC(=O)[C@@]3(C)CC[C@@H]4c5ccc(O)cc5CC[C@H]4[C@H]23)s1"
group = "rule not met"

[[record]]
compound = "C[C@]12CC[C@@H]3c4ccc(O)cc4CC[C@H]3[C@@H]1[C@@H](CNC(=O)c1ccc(F)cc1)CC2=O"
group = "rule met"

[[record]]
compound = "COc1ccc(-c2cn(CCC[C@H]3CC(=O)[C@@]4(C)CC[C@@H]5c6ccc(O)cc6CC[C@H]5[C@H]34)nn2)cc1"
group = "rule not met"

[[record]]
compound = "C[C@]12CC[C@@H]3c4ccc(O)cc4CC[C@H]3[C@@H]1C[C@H](CC(=O)NCc1cccnc1)C2=O [Compound 5, reference compound]"
group = "rule not met"


// switching to the query compound
Determine whether this compound has inhibition at 2 µM no lower than 40%: C[C@]12CC[C@@H]3c4ccc(O)cc4CC[C@H]3[C@@H]1CCC2=O [Compound 6, estrone, reference compound] rule met

###

assayed_system: human 17β-HSD 7 (Homo sapiens)
Construct: made in house; host or cells: E.coli BL21 DE3 Codon Plus RP
Sequence (P56937 whole entry): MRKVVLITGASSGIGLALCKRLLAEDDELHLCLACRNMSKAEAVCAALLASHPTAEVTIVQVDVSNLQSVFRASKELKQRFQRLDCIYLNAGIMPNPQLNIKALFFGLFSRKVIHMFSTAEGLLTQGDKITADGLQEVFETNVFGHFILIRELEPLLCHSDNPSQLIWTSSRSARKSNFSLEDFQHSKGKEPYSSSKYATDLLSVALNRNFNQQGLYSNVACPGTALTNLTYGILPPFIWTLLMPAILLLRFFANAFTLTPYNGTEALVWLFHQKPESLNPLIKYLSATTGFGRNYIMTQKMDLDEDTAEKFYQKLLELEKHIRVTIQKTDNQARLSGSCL
assay_text: In vitro enzymatic activity, recombinant human 17β-HSD 7 (estrone reduction)
Assay type: biochemical
stated_conditions: 2 µM compound, 15 nM 3H-estrone, NADPH, pH 6.6, read-out: Observed % inhibition
readout_kind: inhibition at 2 µM (%)
Express the result in % but write the number alone.

[[record]]
compound = "C[C@]12CC[C@@H]3c4ccc(O)cc4CC[C@H]3[C@@H]1[C@@H](CNC(=O)c1ccc(F)cc1)CC2=O [Compound 1]"
experimental_value = -3.6

[[record]]
compound = "C[C@]12CC[C@@H]3c4ccc(O)cc4CC[C@H]3[C@@H]1[C@@H](CCCC(=O)N1CCOCC1)CC2=O [Compound 2]"
experimental_value = -7.1

[[record]]
compound = "Cc1cnc(NC(=O)CC[C@@H]2CC(=O)[C@@]3(C)CC[C@@H]4c5ccc(O)cc5CC[C@H]4[C@H]23)s1 [Compound 3]"
experimental_value = -9

[[record]]
compound = "C[C@]12CC[C@@H]3c4ccc(O)cc4CC[C@H]3[C@@H]1C[C@H](CC(=O)NCc1cccnc1)C2=O [Compound 5, reference compound]"
experimental_value = 0


Please give the measured inhibition at 2 µM for this compound: COc1ccc(-c2cn(CCC[C@H]3CC(=O)[C@@]4(C)CC[C@@H]5c6ccc(O)cc6CC[C@H]5[C@H]34)nn2)cc1 [Compound 4] -5.8

###

assayed_system: human 17β-HSD 1 (Homo sapiens)
Construct: Full length cDNAs of several 17β-HSDs type 1 originating from different species were cloned; made in house; host or cells: E.coli BL21 DE3 Codon Plus RP
Sequence (P14061 whole entry): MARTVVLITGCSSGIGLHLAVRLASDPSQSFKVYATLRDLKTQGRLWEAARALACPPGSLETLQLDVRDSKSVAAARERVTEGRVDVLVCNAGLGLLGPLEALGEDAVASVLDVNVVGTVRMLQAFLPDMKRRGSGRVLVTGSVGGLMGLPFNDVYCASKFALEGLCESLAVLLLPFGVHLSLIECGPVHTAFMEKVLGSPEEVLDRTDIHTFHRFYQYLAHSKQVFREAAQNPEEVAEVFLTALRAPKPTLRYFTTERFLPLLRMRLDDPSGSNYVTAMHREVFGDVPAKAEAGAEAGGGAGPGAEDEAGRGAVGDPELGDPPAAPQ
assay_text: In vitro enzymatic activity, recombinant human 17β-HSD 1 (estrone reduction)
Format: biochemical
stated_conditions: human 17β-HSD 1; 2 µM compound; 15 nM 3H-estrone, NADPH, pH 6.6; read-out: Observed % inhibition
readout_kind: inhibition at 2 µM (%)
Express the result in % but write the number alone.

Worked set:
[[record]]
compound = "C[C@]12CC[C@@H]3c4ccc(O)cc4CC[C@H]3[C@@H]1C[C@H](CC(=O)NCc1cccnc1)C2=O [Compound 5, reference compound]"
readout_kind = "inhibition at 2 µM"
readout_units = "%"
experimental_value = 100

[[record]]
compound = "C[C@]12CC[C@@H]3c4ccc(O)cc4CC[C@H]3[C@@H]1[C@@H](CNC(=O)c1ccc(F)cc1)CC2=O [Compound 1]"
readout_kind = "inhibition at 2 µM"
readout_units = "%"
experimental_value = 63.6

[[record]]
compound = "C[C@]12CC[C@@H]3c4ccc(O)cc4CC[C@H]3[C@@H]1[C@@H](CCCC(=O)N1CCOCC1)CC2=O [Compound 2]"
readout_kind = "inhibition at 2 µM"
readout_units = "%"
experimental_value = 94.7

[[record]]
compound = "COc1ccc(-c2cn(CCC[C@H]3CC(=O)[C@@]4(C)CC[C@@H]5c6ccc(O)cc6CC[C@H]5[C@H]34)nn2)cc1 [Compound 4]"
readout_kind = "inhibition at 2 µM"
readout_units = "%"
experimental_value = 95.8


Please give the measured inhibition at 2 µM for this compound: Cc1cnc(NC(=O)CC[C@@H]2CC(=O)[C@@]3(C)CC[C@@H]4c5ccc(O)cc5CC[C@H]4[C@H]23)s1 [Compound 3] 97.9

This collection of values is drawn from paper PMC2882332.
